# assay.procedure: ATG_GATA_CIS: Attagene CIS-FACTORIAL HepG2 Assay for human GATA Binding Protein (AID 2282944)
# condition.info: HepG2 GATA cis-element reporter, Attagene multiplex mRNA; actives raise or lower the signal
Calls of active or inactive are those of the source. The calls were made as follows: active = hit-call score of the fitted dose curve at least 0.9, where 1 is the maximum; inactive = score below 0.9.
measure.name: outcome

Please review the following examples before continuing.
compound	experimental.result
C=CCCCCCCCCC(=O)OCC	inactive
O=C1OC2(c3ccc(O)cc3Oc3cc(O)ccc32)c2ccccc21	inactive
CC(C)(C)c1ccc(S)cc1	inactive
CCCC1CCC(=O)CC1	inactive
NCCN1CCNCC1	inactive

Switching to the query record.
Entry OCC=Cc1ccccc1 has what outcome?
inactive
